biological target: T1, HLA-A*02:01 (human); test: T2-A24 MHC class I stabilization, flow cytometry, anti-HLA-A02 BB7.2-FITC, peptide 100 ug/mL
T1 construct: whole, on cells; Empty class I molecule on TAP-deficient T2-A24 cells; detected with anti-HLA-A02 antibody BB7.2
property.label: MFI (solvent ratio)

1. RMLLDYKAEV [As236_10]; 3.3 ratio to solvent

-- ask # return recorded MFI (solvent ratio) for input GLSELVAFYV [As186_10]
-- reply 2.6 ratio to solvent

-- ask Quote MFI (solvent ratio) reported for SVLFGHVECL [As82_10] please.
-- reply 3.3 ratio to solvent

-- ask Give MFI (solvent ratio) for LLNHGAARI [As311_9]
-- reply 0.9 ratio to solvent

-- ask Answer with reported MFI (solvent ratio) of KYWDFYHSL [As365_9]
-- reply 1.1 ratio to solvent

-- ask Kindly indicate its recorded MFI (solvent ratio). Item: SLPLSLKKYL [As408_10]
-- reply 1 ratio to solvent

Data origin, for the record: patent US20170360911A1
